Biological target: Human TRPC6 (Homo sapiens, UniProt Q9Y210)
Construct: expressed in transfected cells
Sequence (Q9Y210 1-931): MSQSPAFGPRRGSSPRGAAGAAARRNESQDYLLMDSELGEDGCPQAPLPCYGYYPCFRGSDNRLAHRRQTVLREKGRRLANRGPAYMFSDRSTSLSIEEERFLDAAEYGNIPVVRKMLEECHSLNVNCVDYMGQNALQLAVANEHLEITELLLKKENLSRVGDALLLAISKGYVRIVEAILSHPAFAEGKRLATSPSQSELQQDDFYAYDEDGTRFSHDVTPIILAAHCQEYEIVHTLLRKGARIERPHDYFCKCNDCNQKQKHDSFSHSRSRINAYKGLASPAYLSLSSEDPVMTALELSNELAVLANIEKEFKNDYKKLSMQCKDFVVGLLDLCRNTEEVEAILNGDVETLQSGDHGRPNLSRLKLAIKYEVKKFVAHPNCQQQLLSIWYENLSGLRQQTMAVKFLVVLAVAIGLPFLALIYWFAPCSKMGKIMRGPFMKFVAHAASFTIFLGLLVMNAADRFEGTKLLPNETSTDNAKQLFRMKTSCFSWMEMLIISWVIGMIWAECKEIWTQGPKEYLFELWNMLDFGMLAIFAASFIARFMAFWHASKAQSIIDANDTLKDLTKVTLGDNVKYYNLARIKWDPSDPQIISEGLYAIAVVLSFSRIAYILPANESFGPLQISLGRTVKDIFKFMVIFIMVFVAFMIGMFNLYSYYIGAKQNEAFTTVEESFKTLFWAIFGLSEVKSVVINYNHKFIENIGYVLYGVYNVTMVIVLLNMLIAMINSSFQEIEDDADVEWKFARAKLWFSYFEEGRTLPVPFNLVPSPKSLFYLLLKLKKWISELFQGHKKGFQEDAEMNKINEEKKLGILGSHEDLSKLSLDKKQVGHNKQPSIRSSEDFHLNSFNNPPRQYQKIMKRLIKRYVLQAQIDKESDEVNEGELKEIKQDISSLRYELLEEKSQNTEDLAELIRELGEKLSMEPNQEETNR
Assay: Evaluation of TRPC6 channel inhibitory activity (1), FLIPR Calcium 5 Assay Kit, OAG stimulation (Compound Nos. 1-1293)
Assay type: cell-based
Details: Human TRPC6 stably-expressing cells, OAG 30 μM, FLIPR Calcium 5 Assay Kit; read-out: Inhibitory activity (pIC50 class) (converted)
ENDPOINT_LABEL: IC50

molecule="N#Cc1ccc(-c2ccc(CCN)nc2)c(Oc2cc(N3CCOCC3)cnn2)c1 [Compound 80]" recorded_measurement="> 1 µM"
molecule="Cn1nc(C2CC2)cc1Oc1cc(C#N)ccc1-c1cccn2c(C3CNC3)nnc12 [compound 571]" recorded_measurement="> 1 µM"
molecule="Cn1nc(C(F)(F)F)cc1Oc1cc(C#N)ccc1-c1ccc(CN)cn1 [compound 810]" recorded_measurement="< 0.01 µM"
molecule="Cc1cc(Oc2cc(C#N)ccc2-c2ncc([C@H](O)CN)cn2)cc(N2CCCCC2)n1 [compound 501]" recorded_measurement="< 0.01 µM"
molecule="Cn1nc(C2CC2)cc1Oc1cc(C#N)ccc1-c1nnc2n1CCNC2 [compound 763]" recorded_measurement="> 1 µM"
molecule="Cc1nc(Oc2cc(C#N)ccc2-c2ncc(CCN)cn2)cc(N(C)CC2CC2)n1 [compound 861]" recorded_measurement="< 0.01 µM"
molecule="Cc1nc(Oc2cc(C#N)ccc2-c2ncc(CN)cn2)cc(N2CCOCC2)n1 [compound 467]" recorded_measurement="< 0.01 µM"
molecule="COCCN(C)c1cc(Oc2cc(C#N)ccc2-c2ncc(CCN)cn2)cc(C)n1 [compound 458]" recorded_measurement="< 0.01 µM"
molecule="Cc1nn(CC(C)C)cc1Oc1cc(C#N)ccc1-c1ncc(CCN)cn1 [compound 801]" recorded_measurement="< 0.01 µM"
molecule="CCCCc1cc(Oc2cc(C#N)ccc2-c2ccc(C(O)C(C)(C)N)cn2)n(C)n1 (stereo not shown) [compound 336]" recorded_measurement="< 0.01 µM"
molecule="Cn1nc(-c2cccc(F)c2)cc1Oc1cc(C#N)ccc1-c1ccc(CCN)cn1 [Compound 199]" recorded_measurement="< 0.01 µM"
molecule="Cc1nc(OCC(C)C)cc(Oc2cc(C#N)ccc2-n2cc([C@@H](O)CN)cn2)n1 [Compound 267]" recorded_measurement="< 0.01 µM"
molecule="Cn1nc(C2CC2)cc1Oc1cc(C#N)ccc1-c1ccc(C[C@H](N)C(=O)O)cc1 [compound 436]" recorded_measurement="> 1 µM"
molecule="N#Cc1ccc(-c2ncc(CCN)cn2)c(Oc2cnn(-c3ccccn3)c2)c1 [compound 912]" recorded_measurement="< 0.01 µM"
molecule="N#Cc1ccc(-c2ncc(CCN)cn2)c(Oc2cc(C3CC3)nn2CC(F)(F)F)c1 [compound 379]" recorded_measurement="< 0.01 µM"
molecule="CN(C)c1cc(Oc2cc(C#N)ccc2-c2ncc(CN)cn2)n(C)n1 [compound 626]" recorded_measurement="< 0.01 µM"
molecule="Cc1nc(Oc2cc(C#N)ccc2-c2ncc(CN)cn2)cc(O[C@H]2CCOC2)n1 [compound 845]" recorded_measurement="> 1 µM"
molecule="CN(C)c1cc(Oc2cc(C#N)ccc2-c2ccc(CC3(N)COC3)cn2)n(C)n1 [compound 743]" recorded_measurement="< 0.01 µM"
molecule="Cc1ccc(-c2cc(Oc3cc(C#N)ccc3-c3ccc(CCN)cn3)n(C)n2)nc1 [Compound 182]" recorded_measurement="< 0.01 µM"
molecule="N#Cc1ccc(-c2ncc(CCN)cn2)c(Cn2cc(-c3ccccc3)cn2)c1 [compound 1201]" recorded_measurement="0.01 to 1 µM"
molecule="Cc1nc(C(C)C)cn1Cc1cc(C#N)ccc1-c1ncc(CN)cn1 [compound 1172]" recorded_measurement="0.01 to 1 µM"
molecule="Cc1cc(-c2ccccc2)nn1Cc1cc(C#N)ccc1-c1ccc(CCN)cn1 [compound 1158]" recorded_measurement="> 1 µM"
molecule="Cc1nc(Oc2cc(C#N)ccc2-n2cc([C@@H](O)CN)cn2)cc(N2CCC(F)(F)CC2)n1 [Compound 256]" recorded_measurement="0.01 to 1 µM"
molecule="Cn1nc(C2CCOCC2)cc1Oc1cc(F)ccc1-c1ncc(CN)cn1 [compound 1007]" recorded_measurement="0.01 to 1 µM"
molecule="Cn1nc(-c2ccccc2)cc1Oc1cc(C#N)ccc1-c1ccc(CCN)cc1 [Compound 115]" recorded_measurement="< 0.01 µM"
molecule="N#Cc1ccc(-c2ccc(CCN)cc2)c(Sc2cnnc(N3CCCC3)c2)c1 [compound 1241]" recorded_measurement="< 0.01 µM"
molecule="Cn1nc(-c2ccccn2)cc1Oc1cc(C#N)ccc1-c1ncc(CNC(C)(C)C)cn1 [compound 664]" recorded_measurement="0.01 to 1 µM"
molecule="Cc1nc(Oc2cc(F)ccc2-c2ncc(CN)cn2)cc(N2CCOCC2)n1 [compound 1002]" recorded_measurement="> 1 µM"
molecule="N#Cc1ccc(-n2cc(CCN)cn2)c(Oc2cnnc(N3CCCCC3)c2)c1 [Compound 283]" recorded_measurement="0.01 to 1 µM"
molecule="Cc1c(Oc2cc(C#N)ccc2-c2ncc(CCN)cn2)cnn1-c1ccccn1 [compound 830]" recorded_measurement="0.01 to 1 µM"
molecule="Cc1nc(Oc2cc(C#N)ccc2-c2ccc(CCN)cc2)cc(-c2ncco2)n1 [Compound 34]" recorded_measurement="0.01 to 1 µM"
molecule="CNC(=O)C(N)c1ccc(-c2ccc(C#N)cc2Oc2cc(C3CC3)nn2C)nc1 (stereo not shown) [compound 491]" recorded_measurement="0.01 to 1 µM"
molecule="Cn1nc(N2CCCCC2)cc1Cc1cc(C#N)ccc1-c1ncc(CCN)cn1 [compound 1218]" recorded_measurement="< 0.01 µM"
molecule="Cc1nc(Oc2cc(C#N)ccc2-c2ncc(CN)cn2)cc(N2C[C@@H](C)O[C@@H](C)C2)n1 [compound 709]" recorded_measurement="0.01 to 1 µM"

###

target: Human TRPC6 (Homo sapiens, UniProt Q9Y210); construct: expressed in transfected cells; test: Evaluation of TRPC6 channel inhibitory activity (1), FLIPR Calcium 5 Assay Kit, OAG stimulation (Compound Nos. 1-1293); type: cell-based; conditions: Human TRPC6 stably-expressing cells, OAG 30 μM, FLIPR Calcium 5 Assay Kit; read-out: Inhibitory activity (pIC50 class) (converted)
ENDPOINT_LABEL: IC50

compound=N#Cc1ccc(-c2ncc(CCN)cn2)c(C(=O)c2cnn(C3CCC3)c2)c1 recorded_measurement="< 10 nM"
compound=Cc1nc(Oc2cc(C#N)ccc2-c2cccc(CCN)c2)cc(N2CCOCC2)n1 recorded_measurement="> 1000 nM"
compound=CCc1cc(Oc2cc(C#N)ccc2-c2ncc(CN)cn2)n(C)n1 recorded_measurement="< 10 nM"
compound="Cc1nc(Oc2cc(C#N)ccc2-c2ccc(C(O)CN)c(O)c2)cc(N2CCOCC2)n1 (centres unmarked)" recorded_measurement="10 to 1000 nM"
compound=Cc1nc(OCC(F)(F)F)cc(Oc2cc(C#N)ccc2-c2ncc(CN)cn2)n1 recorded_measurement="> 1000 nM"
compound=Cc1cc(Oc2cc(C#N)ccc2-c2cnc(CN)cn2)cc(N2CCOCC2)n1 recorded_measurement="10 to 1000 nM"
compound=Cn1nc(-c2ccccn2)cc1Oc1cc(C#N)ccc1-c1ncc(CN)cn1 recorded_measurement="< 10 nM"
compound=Cc1cccc(-c2cn(Cc3cc(C#N)ccc3-c3ccc(CCN)cn3)cn2)c1 recorded_measurement="< 10 nM"
compound=Cn1nc(-c2ccccc2)cc1Oc1cc(C#N)ccc1-c1ccc(CCNC2COC2)cn1 recorded_measurement="10 to 1000 nM"
compound=Cc1nc(OCC(F)(F)F)cc(Oc2cc(C#N)ccc2-n2cc([C@@H](O)CN)cn2)n1 recorded_measurement="10 to 1000 nM"
compound=N#Cc1ccc(-c2ncc(CCN)cn2)c(Oc2nnc(-c3ccncc3)s2)c1 recorded_measurement="10 to 1000 nM"
compound=Cc1nc(Oc2cc(C#N)ccc2-c2ncc(CCN)cn2)cc(N2CCC[C@@H]2C)n1 recorded_measurement="< 10 nM"
compound=Cn1nc(N2CCOCC2)cc1Oc1cc(F)ccc1-c1ccc(CCN)cn1 recorded_measurement="< 10 nM"
compound=Cc1nn(CC(F)(F)F)c(C)c1Oc1cc(C#N)ccc1-c1ncc(CCN)cn1 recorded_measurement="> 1000 nM"
compound=N#Cc1ccc(-c2ccc(CCN)nc2)c(Oc2cc(Cl)cnn2)c1 recorded_measurement="> 1000 nM"
compound=Cn1nc(-c2ccccc2)cc1Oc1nc(C#N)ccc1-c1ccc(CCN)cn1 recorded_measurement="< 10 nM"
compound=Cn1nc(C(F)(F)F)cc1Oc1cc(C#N)ccc1-c1ncc(CCN)cn1 recorded_measurement="< 10 nM"
